Assay: self-splicing fitness, log relative to wild type (ln ratio); higher = more splicing; Tetrahymena group I intron in knt gene, E. coli kanamycin selection, DiMSum; sequences stand for … in CUCUCU…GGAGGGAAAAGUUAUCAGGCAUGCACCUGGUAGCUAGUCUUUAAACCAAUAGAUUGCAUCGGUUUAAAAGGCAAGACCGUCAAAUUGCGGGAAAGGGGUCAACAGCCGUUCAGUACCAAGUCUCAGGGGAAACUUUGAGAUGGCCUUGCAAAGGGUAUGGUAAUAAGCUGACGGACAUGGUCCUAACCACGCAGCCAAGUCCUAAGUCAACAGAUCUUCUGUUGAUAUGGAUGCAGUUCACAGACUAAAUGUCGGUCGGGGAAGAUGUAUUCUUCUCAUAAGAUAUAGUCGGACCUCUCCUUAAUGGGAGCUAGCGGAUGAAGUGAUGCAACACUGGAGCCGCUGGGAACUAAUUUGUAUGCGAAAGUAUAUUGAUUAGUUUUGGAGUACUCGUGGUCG;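 also: selection with 25 µg/mL kanamycin versus none on LB agar overnight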
Settings: 30 °C
Reported values of self-splicing fitness (ln) for individual entries
Keep the answer to the number alone.

Example results:
INSERT INTO assay_data (chain, quantity, assay_result) VALUES
  ('UAAGAGCAAUAUUACGCGGA', 'self-splicing fitness (ln)', -2.95),
  ('UGACAGCAAUAUUACGUUGA', 'self-splicing fitness (ln)', -1.99),
  ('AGAGAGCAAUAUUACGACUG', 'self-splicing fitness (ln)', -2.3);

Req: Given the sequence `UCGCAGCAAUAUUACGAUGG` , what is its reported self-splicing fitness (ln)?
Resp: -0.799

Req: Also `GGUAAGCAAUAUUACGUGCC` ?
Resp: -3.17

Req: Also `UUGUAGCAAUAUUACGUCAC` ?
Resp: -2.56

Req: Also `UCUCAGCAAUAUUACGCGCG` ?
Resp: -2.42

Req: Also `AUCGAGCAAUAUUACGAAGU` ?
Resp: -2.62

Req: Also `CUCUAGCAAUAUUACGGGAC` ?
Resp: -2.77

Req: Also `GAAUAGCAAUAUUACGUGGC` ?
Resp: -3.67

Req: Also `AGUGAGCAAUAUUACGUAUC` ?
Resp: -3.05

Req: Also `AAUGAGCAAUAUUACGUCUG` ?
Resp: -2.92

Req: Also `GGAUAGCAAUAUUACGUGAC` ?
Resp: -2.63

Req: Also `GUUUAGCAAUAUUACGUCGG` ?
Resp: -2.06

Req: Also `AUACAGCAAUAUUACGUAAU` ?
Resp: -1.43

Req: Also `GAUCAGCAAUAUUACGCAAA` ?
Resp: -0.978

Req: Also `GAUAAGCAAUAUUACGACGG` ?
Resp: -2.96

Req: Also `AGCUAGCAAUAUUACGGGUC` ?
Resp: -2.59

Req: Also `UGCUAGCAAUAUUACGCGCG` ?
Resp: -0.603

Req: Also `CGUAAGCAAUAUUACGAAGG` ?
Resp: -1.78

Req: Also `UACAAGCAAUAUUACGUCUA` ?
Resp: -0.798

Req: Also `GUGCAGCAAUAUUACGGCCC` ?
Resp: -0.475

Req: Also `UCAGAGCAAUAUUACGGUGG` ?
Resp: -3.06

Req: Also `ACUUAGCAAUAUUACGGACU` ?
Resp: -0.341

Req: Also `GAGUAGCAAUAUUACGUGAG` ?
Resp: -2.5
